# Tested on: LNCaP
# Assay Summary: Cytotoxicity against human LNcaP cells after 48 hrs by SRB assay
# Type: functional
Property Measured: GI50 (nM)
Give the value in nM but do not write nM after it.

Chemical Structure | Assayed Target | Unit Descriptor | Test Result
C/C=C1\NC(=O)[C@H](Cc2ccccc2)NC(=O)[C@@H](C(C)C)NC(=O)[C@@H]([C@H](C)CC)NC(=O)[C@H](NC(=O)[C@H](NC(=O)[C@H](CCCN)NC(=O)[C@H]2CCCN2C(=O)[C@H](NC(=O)[C@@H](NC(=O)[C@@H](NC(=O)[C@H](NC(=O)c2ccc(C(F)(F)F)cc2)C(C)C)[C@@H](C)O)C(C)C)C(C)C)[C@H](C)CC)[C@H](C)OC(=O)[C@H](C(C)C)NC1=O | LNCaP | nM | 341
C/C=C1\NC(=O)[C@H](Cc2ccccc2)NC(=O)[C@@H](C(C)C)NC(=O)[C@@H]([C@H](C)CC)NC(=O)[C@H](NC(=O)[C@H](NC(=O)[C@H](CCCN)NC(=O)[C@H]2CCCN2C(=O)[C@H](NC(=O)[C@@H](NC(=O)[C@@H](NC(=O)[C@@H](Cc2ccccc2)NC(=O)CCCC(C)C)[C@@H](C)O)C(C)C)C(C)C)[C@H](C)CC)[C@H](C)OC(=O)[C@H](C(C)C)NC1=O | LNCaP | nM | 2280

Now look at this entry.
Query: Give GI50 for C/C=C1\NC(=O)[C@H](Cc2ccccc2)NC(=O)[C@@H](C(C)C)NC(=O)[C@@H]([C@@H](C)CC)NC(=O)[C@H](NC(=O)[C@H](NC(=O)[C@H](CCCN)NC(=O)[C@H]2CCCN2C(=O)[C@H](NC(=O)[C@@H](NC(=O)[C@@H](NC(=O)[C@H](NC(=O)CCCC(C)C)[C@@H](C)O)[C@@H](C)O)C(C)C)C(C)C)[C@@H](C)CC)[C@@H](C)OC(=O)[C@H](C(C)C)NC1=O
Response: 1950

###

TGI values for the molecules below.
# Test system: LoVo
# Assay Summary: Cytotoxicity against human doxorubicin resistant LoVo cells after 48 hrs by SRB assay
# Assay type: functional
Give the value in nM but do not write nM after it.

Molecule | Test Result
C/C=C1\NC(=O)[C@H](Cc2ccccc2)NC(=O)[C@@H](C(C)C)NC(=O)[C@@H]([C@H](C)CC)NC(=O)[C@H](NC(=O)[C@H](NC(=O)[C@H](CCCN)NC(=O)[C@H]2CCCN2C(=O)[C@H](NC(=O)[C@@H](NC(=O)[C@@H](NC(=O)[C@H](NC(=O)CCCCCCCCCCCCCCC)C(C)C)[C@@H](C)O)C(C)C)C(C)C)[C@H](C)CC)[C@H](C)OC(=O)[C@H](C(C)C)NC1=O | 262
C/C=C1\NC(=O)[C@H](Cc2ccccc2)NC(=O)[C@@H](C(C)C)NC(=O)[C@@H]([C@H](C)CC)NC(=O)[C@H](NC(=O)[C@H](NC(=O)[C@H](CCCN)NC(=O)[C@H]2CCCN2C(=O)[C@H](NC(=O)[C@@H](NC(=O)[C@@H](NC(=O)[C@H](NC(=O)CCCC(C)C)C(C)C)[C@@H](C)O)C(C)C)C(C)C)[C@H](C)CC)COC(=O)[C@H](C(C)C)NC1=O | 367

Query: Give TGI for C/C=C1\NC(=O)[C@H](Cc2ccccc2)NC(=O)[C@@H](C(C)C)NC(=O)[C@@H]([C@H](C)CC)NC(=O)[C@H](NC(=O)[C@H](NC(=O)[C@H](CCCN)NC(=O)[C@H]2CCCN2C(=O)[C@H](NC(=O)[C@H](CCCN)NC(=O)[C@@H](NC(=O)[C@H](NC(=O)CCCC(C)C)C(C)C)[C@@H](C)O)C(C)C)[C@H](C)CC)[C@H](C)OC(=O)[C@H](C(C)C)NC1=O
Response: 7660

Query: Give TGI for C/C=C1\NC(=O)[C@H](Cc2ccccc2)NC(=O)[C@@H](C(C)C)NC(=O)[C@@H]([C@H](C)CC)NC(=O)[C@H](NC(=O)[C@H](NC(=O)[C@H](CCCN)NC(=O)[C@H]2CCCN2C(=O)[C@H](NC(=O)[C@@H](NC(=O)[C@@H](NC(=O)[C@H](NC(=O)C2CCC(C)CC2)C(C)C)[C@@H](C)O)C(C)C)C(C)C)[C@H](C)CC)[C@H](C)OC(=O)[C@H](C(C)C)NC1=O (stereo partly specified)
Response: 329

Query: Give TGI for C/C=C1\NC(=O)[C@H](Cc2ccc(F)cc2)NC(=O)[C@@H](C(C)C)NC(=O)[C@@H]([C@H](C)CC)NC(=O)[C@H](NC(=O)[C@H](NC(=O)[C@H](CCCN)NC(=O)[C@H]2CCCN2C(=O)[C@H](NC(=O)[C@@H](NC(=O)[C@@H](NC(=O)[C@H](NC(=O)CC[C@@H](C)CC)C(C)C)[C@@H](C)O)C(C)C)C(C)C)[C@H](C)CC)[C@H](C)OC(=O)[C@H](C(C)C)NC1=O
Response: 460

Query: Give TGI for C/C=C1\NC(=O)[C@H](Cc2ccccc2)NC(=O)[C@@H](C(C)C)NC(=O)[C@@H]([C@H](C)CC)NC(=O)[C@H](NC(=O)[C@H](NC(=O)[C@H](CCCNC(=O)CCCC[C@@H]2SC[C@@H]3NC(=O)N[C@@H]32)NC(=O)[C@H]2CCCN2C(=O)[C@H](NC(=O)[C@@H](NC(=O)[C@@H](NC(=O)[C@H](NC(=O)CCCC(C)C)C(C)C)[C@@H](C)O)C(C)C)C(C)C)[C@H](C)CC)[C@H](C)OC(=O)[C@H](C(C)C)NC1=O
Response: 354

Source: ChEMBL document CHEMBL1156597
